Test: Cytotoxicity against macrophage (unknown origin) assessed as reduction in cell viability after 24 hrs by MTT assay
Type: cell-based
Settings: macrophages (unknown origin)
Collected CC50 at 24 h values appear next to each entry.

O=C(/C=C/c1cccc(Cl)c1)NNC(=O)c1ccc2c(c1)OCCO2 | 391 µM
Cc1cccc(/C=C/C(=O)NNC(=O)c2ccc3c(c2)OCCO3)c1 | 281 µM
O=C(/C=C/c1ccc(Br)cc1)NNC(=O)c1ccc2c(c1)OCCO2 | 259 µM
Cc1ccccc1/C=C/C(=O)NNC(=O)c1ccc2c(c1)OCCO2 | 268 µM
O=C(/C=C/c1ccc(Cl)cc1)NNC(=O)c1ccc2c(c1)OCCO2 | 309 µM

Data request: Quick one: CC50 at 24 h for O=C(/C=C/c1ccccc1)NNC(=O)c1ccc2c(c1)OCCO2 ?
Data returned: 312 µM

Data request: Quick one: CC50 at 24 h for O=C(/C=C/c1ccccc1[N+](=O)[O-])NNC(=O)c1ccc2c(c1)OCCO2 ?
Data returned: 257 µM

Data request: Quick one: CC50 at 24 h for O=C(/C=C/c1cccc([N+](=O)[O-])c1)NNC(=O)c1ccc2c(c1)OCCO2 ?
Data returned: 323 µM

Data request: Quick one: CC50 at 24 h for O=C(/C=C/c1ccccc1Cl)NNC(=O)c1ccc2c(c1)OCCO2 ?
Data returned: 285 µM

Data request: Quick one: CC50 at 24 h for COc1cccc(/C=C/C(=O)NNC(=O)c2ccc3c(c2)OCCO3)c1 ?
Data returned: 398 µM
